Recorded MIC values for a group of compounds are listed next.
- Test system: Mycobacterium tuberculosis H37Rv CNCTC My 331/88 (ATCC 27294)
- MEASUREMENT_DESCRIPTION: Microplate Alamar Blue assay vs Mtb H37Rv
- Type: cell-based
- MEASUREMENT_PARAMETERS: Mycobacterium tuberculosis, pH 6.6, MABA, Middlebrook 7H9 pH 6.6, recalculated from µg/mL; read-out: MIC Mtb H37Rv
ENDPOINT_LABEL: MIC (µM)

• O=C(Nc1ccc2c(c1)B(O)OC2)c1cscn1 = 96.1
• O=C(O)c1cn(C2CC2)c2cc(N3CCNCC3)c(F)cc2c1=O [CIP, ciprofloxacin, reference compound] = 0.6
• O=C(Nc1ccc2c(c1)B(O)OC2)c1ccc(Cl)cc1 = 43.5
• O=C(Nc1ccc2c(c1)B(O)OC2)c1cnccn1 = 49
• O=C(Nc1ccc2c(c1)B(O)OC2)c1cnc2ccccc2n1 = 20.5
• O=C(Nc1ccc2c(c1)B(O)OC2)c1ccc(C(F)(F)F)nc1 = 155
• O=C(Nc1ccc2c(c1)B(O)OC2)c1ccc(Cl)s1 = 42.6
• NNC(=O)c1ccncc1 [INH, isoniazid, reference compound] = 2.84

====

- Test system: Staphylococcus aureus subsp. aureus CCM 4223 (ATCC 29213)
- MEASUREMENT_DESCRIPTION: Antibacterial microdilution broth (EUCAST)
- Type: cell-based
- MEASUREMENT_PARAMETERS: 48 h, read-out: MIC Staphylococcus aureus subsp. aureus
Recorded MIC values for a group of molecules are listed next.
ENDPOINT_LABEL: MIC (µM)

• O=C(Nc1ccc2c(c1)B(O)OC2)c1ncc[nH]c1=O [Compound 8] = 125
• O=C(Nc1ccc2c(c1)B(O)OC2)c1ccc2ccccc2n1 [Compound 19] = 125

====

- System: Mycolicibacterium smegmatis DSM 43,465 (ATCC 607)
- MEASUREMENT_DESCRIPTION: Antimycobacterial microdilution (resazurin) vs M. smegmatis
- Assay type: cell-based
- MEASUREMENT_PARAMETERS: Middlebrook 7H9, resazurin, read-out: MIC M. smeg.
Recorded MIC values for a group of compounds are listed next.
ENDPOINT_LABEL: MIC (µM)

- O=C(Nc1ccc2c(c1)B(O)OC2)c1cnc2ccccc2n1: 12.8
- Nc1nccnc1C(=O)Nc1ccc2c(c1)B(O)OC2: 463
- O=C(Nc1ccc2c(c1)B(O)OC2)c1cncc(Cl)n1: 27
- O=C(Nc1ccc2c(c1)B(O)OC2)c1nc2ccccc2[nH]c1=O: 24.3
- Nc1ncc(Cl)nc1C(=O)Nc1ccc2c(c1)B(O)OC2: 411
- O=C(Nc1ccc2c(c1)B(O)OC2)c1ncc[nH]c1=O: 28.8
- O=C(Nc1ccc2c(c1)B(O)OC2)c1ccc(O)nc1: 116
- O=C(Nc1ccc2c(c1)B(O)OC2)c1cscn1: 30
- O=C(Nc1ccc2c(c1)B(O)OC2)c1cnccn1: 30.6
- O=C(Nc1ccc2c(c1)B(O)OC2)c1cnc(O)cn1: 57.6

====

- System: Lichtheimia corymbifera CCM 8077
- MEASUREMENT_DESCRIPTION: Antifungal microdilution broth (EUCAST)
- Format: cell-based
- MEASUREMENT_PARAMETERS: Lichtheimia corymbifera, CCM8077, 48 h, read-out: IC50 (spectrophotometric detection, 530 nm)
ENDPOINT_LABEL: IC50

* C[C@@H](c1ncncc1F)[C@](O)(Cn1cncn1)c1ccc(F)cc1F [voriconazole, reference compound] | > 45.8 µM

====

- System: Candida parapsilosis CCM 8260 (ATCC 22019)
- MEASUREMENT_DESCRIPTION: Antifungal microdilution broth (EUCAST)
- Format: cell-based
- MEASUREMENT_PARAMETERS: Lodderomyces parapsilosis, 24 h, read-out: IC50 (spectrophotometric detection, 530 nm)
pIC50: −log10 of the molar value.
ENDPOINT_LABEL: pIC50

• C[C@@H](c1ncncc1F)[C@](O)(Cn1cncn1)c1ccc(F)cc1F [voriconazole, reference compound] = 7.07
